Test: MTT cytotoxicity test, VA13
Type: cell-based
Conditions: human, VA13 SV40-transformed normal lung fibroblast cells, 72 h incubation
attribute.measured: CC50 at 72 h (µM)

[
  {
    "compound": "CN1CC2(NC(=S)N(c3ccc(Cl)cc3)C2=O)C2(C1)C(=O)Nc1ccc(Cl)cc12 (stereo not shown)",
    "attribute.measured": "CC50 at 72 h",
    "measurement.unit": "µM",
    "relation.symbol": "=",
    "measurement": 30.4
  },
  {
    "compound": "COc1ccc(N2C(=O)[C@@]3(CN(C)C[C@@]34C(=O)Nc3ccc(Cl)cc34)NC2=S)cc1 (racemic)",
    "attribute.measured": "CC50 at 72 h",
    "measurement.unit": "µM",
    "relation.symbol": "=",
    "measurement": 2.3
  },
  {
    "compound": "CN1CC2(NC(=S)N(C3CC3)C2=O)C2(C1)C(=O)Nc1ccccc12 (stereo not shown)",
    "attribute.measured": "CC50 at 72 h",
    "measurement.unit": "µM",
    "relation.symbol": ">",
    "measurement": 100
  },
  {
    "compound": "Cc1ccc(N2C(=O)C3(CN(C)CC34C(=O)Nc3ccc(Cl)cc34)NC2=S)cc1 (stereo not shown)",
    "attribute.measured": "CC50 at 72 h",
    "measurement.unit": "µM",
    "relation.symbol": "=",
    "measurement": 27.2
  }
]
